Source listed as ChEMBL document CHEMBL1275505.

# Tested on: Escherichia coli
# methodDescription: Antimicrobial activity against Escherichia coli TOP10 harboring pSmQnr7 carrying Smqnr gene by Etest
# Type: functional
property: MIC (µg/mL)
Give a bare numeral; the unit µg/mL is implied.

COc1c(N2C[C@@H]3CCCN[C@@H]3C2)c(F)cc2c(=O)c(C(=O)O)cn(C3CC3)c12 [MOXIFLOXACIN] : 0.008
COc1c(N2CCNC(C)C2)c(F)cc2c(=O)c(C(=O)O)cn(C3CC3)c12 (stereo unspecified) [GATIFLOXACIN] : 0.023
C[C@@H]1CN(c2c(F)c(N)c3c(=O)c(C(=O)O)cn(C4CC4)c3c2F)C[C@H](C)N1 [SPARFLOXACIN] : 0.008
CCn1cc(C(=O)O)c(=O)c2cc(F)c(N3CCNCC3)cc21 [NORFLOXACIN] : 0.047
CCn1cc(C(=O)O)c(=O)c2ccc(C)nc21 [NALIDIXIC ACID] : 2

// next item, MIC requested
IN: Find the recorded MIC belonging to C[C@H]1COc2c(N3CCN(C)CC3)c(F)cc3c(=O)c(C(=O)O)cn1c23.C[C@H]1COc2c(N3CCN(C)CC3)c(F)cc3c(=O)c(C(=O)O)cn1c23.O [LEVOFLOXACIN] and report it.
OUT: 0.023
